Biological target: T1, Mcl-1, Q07820
T1 chain: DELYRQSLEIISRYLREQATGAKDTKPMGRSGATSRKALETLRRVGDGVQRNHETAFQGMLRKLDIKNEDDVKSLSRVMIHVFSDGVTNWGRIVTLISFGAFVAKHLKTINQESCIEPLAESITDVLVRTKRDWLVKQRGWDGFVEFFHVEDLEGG
Experiment: peptide SPOT array, c-Myc-tagged receptor at 1 uM or 100 nM, anti-c-Myc-Cy3
Quantity kind: SPOT signal as a fraction of Bim BH3's signal on the same receptor and array

{"Binder": "RLRQLGVAKKDGVLSDNFKGKRIVLV [PPAT]", "Value observed": 0.68}
{"Binder": "MVLDPSLAEHLSHFGIDMLKMQKTDK [USP5]", "Value observed": 0.04}
{"Binder": "EITQHNVTELLRDVAAWGRARATGGD [C19orf51]", "Value observed": 0.02}

P. KLALEQRCRELRARGRRLEETLPRRI [KIF19]
Q. RIEMWISILEDNELGEYAAVELHQAK [KIF13A]
Which gives the smaller SPOT signal as a fraction of Bim BH3's signal on the same receptor and array number: P or Q ? When you have decided, please share the label of that item.
Q

Reference source for all entries: paper PMC4072508
